Ref: PubChem BioAssay (NCI)

Overview of recorded TGI for various molecules
System: MDA-MB-231 breast
ASSAY_NAME: NCI tumour cell line growth inhibition, 48 h
Only the number, expressed in µM, is required.

| SMILES_TEXT | SCALE_UNIT | RESULT |
| --- | --- | --- |
| CCCCCCCCCCCCCC[n+]1ccc(C)cc1 | µM | 3.7 |

Moving on to the next molecule.
TGI measured on O=C1c2cccnc2C(=O)c2c1c(C(=O)OCCCN1CCCCC1)c1ccccn21 = 13.9

====

Test system: NCI-H226 lung
ASSAY_NAME: NCI tumour cell line growth inhibition, 48 h
Just so you know, the groups by TGI go like this: one (below 10 µM), two (10 µM to below 20 µM), three (20 µM or more)

These recorded examples may help you get a feel for the data.
| COMPOUND | CLASS_LABEL |
| --- | --- |
| CC(=O)NC(C=O)C(O[C@H](C)C(=O)NC(C)C(=O)NC(CCC(N)=O)C(=O)OCc1ccccc1)C(O)C(O)COC(=O)CCNc1c2ccccc2nc2cccc([N+](=O)[O-])c12 (some centres not stated) | one |
| Cc1[nH]c2cc(F)ccc2c1-c1nc2c3cccnc3c3ncccc3c2[nH]1 | one |

## Input Which class is correct for the following compound? COc1cc2c(/C=C3/C(=O)N(C)c4ccc(O)cc43)c(Cl)[nH]c2cc1C
## Output two

## Input State the class of the compound shown: Cc1nc2cc(Nc3nc(Nc4ccc(F)cc4)nc(N4CCOCC4)n3)ccc2n1Cc1ccccc1
## Output three

## Input Field: class (TGI) — entry: O=C(SCc1cccc2ccccc12)c1ccc(Cl)cc1
## Output three
